Cited source for all entries: ChEMBL document CHEMBL4513216

- run.description: Toxicity liver stage against HepG2, at 10uM
- Type: cell-based
- Design: test concentration 10 uM, cell line HepG2-A16-CD81EGFP
- assay.conditions: human, HepG2-A16-CD81EGFP cells; read-out: INHIBITION
I'd appreciate it if you could supply cytotoxicity at 10 µM values for the items below.
Reply with a number, then the unit it belongs to.

molecule="NCCn1nc(C2CCN(Cc3ccc(Cl)c(Cl)c3)C2)c2nccnc21 (stereo unspecified)" attribute_measured="cytotoxicity at 10 µM" result_value=27.7%
molecule="c1nnc(Nc2cncc(C3CCCN3CC3CC3)n2)s1 (stereo unspecified)" attribute_measured="cytotoxicity at 10 µM" result_value=3.01%
molecule="Cc1ccc(C(C)(O)CNC(=O)c2sccc2OC(F)F)o1 (stereo unspecified)" attribute_measured="cytotoxicity at 10 µM" result_value=-1.34%

For each listed entry, give its cytotoxicity at 10 µM.
1. N#Cc1cnc2c(F)cc(F)cc2c1NC1CCN(CC(N)=O)CC1
2. Cc1nnc(NCCC(=O)N(C)Cc2ccccc2)c(C#N)c1C

Found:
["-2.89%", "-1.04%"]

For each of the molecules below, state cytotoxicity at 10 µM.
1. CCCS(=O)(=O)N1CCCC(CCC(=O)N(C)CCc2ccccn2)C1 (stereo unspecified)
2. CC(C)(CCS(C)(=O)=O)CNC(=O)NC1CCCCC1(C)C (stereo unspecified)
3. NC(=O)C1CCN(CCc2ccc(NCc3cscn3)cc2)CC1
4. Cc1cccc2c1N(C)C(=O)C21CC(=O)Nc2c1cnn2C(C)(C)C (stereo unspecified)

Found:
5.02%
11.3%
3.69%
-1.65%

Batch of 2 molecules: report cytotoxicity at 10 µM for each.
1. Cc1ccc(-c2nnc(CN3CCOC(Cn4cncn4)C3)o2)cc1 (stereo unspecified)
2. CC(C)OCCC(=O)N1CCN(CC(O)c2ccccc2)CC1 (stereo unspecified)

Found:
1: -10.2%; 2: -8.09%

====

- run.description: Toxicity liver stage against HepG2, at 10uM
- Format: cell-based
- Design: test concentration 10 uM, cell line HepG2-A16-CD81EGFP
- assay.conditions: human, HepG2-A16-CD81EGFP cells; read-out: INHIBITION
attribute.measured: cytotoxicity at 10 µM (%)
Give bare numbers, in %.

compound=COc1ccccc1C(=O)NS(=O)(=O)c1cccc(C#N)c1 result_value=-6.52
compound=NCCC(=O)N1CCC2(CC1)CN(C(=O)c1ccc(Cl)cc1)CCO2 result_value=3.1
compound="Cc1ccccc1CN1CCC(c2nn(CCN)c3nccnc23)C1 (stereo unspecified)" result_value=-24.3

I have 5 compounds here; please give me cytotoxicity at 10 µM for each one.
1. CC(C)c1nn(C)c(N(C)C)c1CNC1CCOc2ccccc21 (stereo unspecified)
2. O=C(c1ccc2ncsc2c1)N1CCC(C(=O)O)(n2cccn2)CC1
3. COc1c(CNCc2ccc(N(C)C)nc2)c(C)nn1C
4. NC(=O)CN1CCCN(C(=O)Cc2cccc(C(F)(F)F)c2)CC1
5. CCc1ccc(S(=O)(=O)N2CC[C@@](O)(CCOC)[C@H](C)C2)cc1

Found:
9.36
6.01
-12.3
-3.05
6.8

Could you tell me cytotoxicity at 10 µM for each of these compounds? They are listed below.
1. O=C(c1cn(-c2ccc(F)cc2)nn1)N1CCCC(n2cccn2)C1 (stereo unspecified)
2. Cc1noc(C(C)C)c1C(=O)NS(=O)(=O)c1ccc2c(c1)OCCCO2
3. CC(C)CCCC(C)NC(=O)c1ccc(OCC(N)=O)cc1 (stereo unspecified)

Found:
1: -3.56; 2: -9.06; 3: 10.2

====

- run.description: Toxicity liver stage against HepG2, at 10uM
- Assay type: cell-based
- Parameters: test concentration 10 uM, cell line HepG2-A16-CD81EGFP
- assay.conditions: human, HepG2-A16-CD81EGFP cells; read-out: INHIBITION
attribute.measured: cytotoxicity at 10 µM

Answered examples (8):
molecule=CSC1(CNC(=O)N(C)Cc2sccc2C)CCOCC1 attribute_measured="cytotoxicity at 10 µM" result_value=-57.4%
molecule=CC(C)NC(=O)CS(=O)(=O)Cc1cc(Cl)c2c(c1)OCCO2 attribute_measured="cytotoxicity at 10 µM" result_value=-4.53%
molecule="COc1cc(N2CCCC3(CCN(c4cccnc4)C3=O)C2)ncn1 (centres undefined)" attribute_measured="cytotoxicity at 10 µM" result_value=-103%
molecule="CN(C)CCN1CCC(NC2CSCCc3ccccc32)CC1 (centres undefined)" attribute_measured="cytotoxicity at 10 µM" result_value=-8.77%
molecule=CC(C)CO[C@H]1CN(S(=O)(=O)c2cn(C)cn2)[C@@H]2CCCO[C@H]12 attribute_measured="cytotoxicity at 10 µM" result_value=-148%
molecule=Cc1ccc(NC2CCN(C(=O)c3cccnc3N(C)C)CC2)nn1 attribute_measured="cytotoxicity at 10 µM" result_value=-12.1%
molecule="O=C(CCn1ccc2ccccc21)Nc1ccnn1CC1CCOC1 (centres undefined)" attribute_measured="cytotoxicity at 10 µM" result_value=2.56%
molecule="CCOCCCNS(=O)(=O)c1ccc2c(c1)NC(=O)C(C)O2 (centres undefined)" attribute_measured="cytotoxicity at 10 µM" result_value=-3.57%

For each of the molecules below, note its cytotoxicity at 10 µM.
1. CC(C)[C@H](NC(=O)Cn1nc2c(cc1=O)CCCC2)C(=O)O
2. Nc1ccc(C(=O)N2C[C@H]3CC[C@@H](C2)N(Cc2ccccc2)C3)cn1

Found:
1: 1.85%; 2: -121%

====

Provide the reported cytotoxicity at 10 µM of each item.
- run.description: Toxicity liver stage against HepG2, at 10uM
- Type: cell-based
- Parameters: test concentration 10 uM, cell line HepG2-A16-CD81EGFP
- assay.conditions: human, HepG2-A16-CD81EGFP cells; read-out: INHIBITION
One number for each entry, in %.

Recorded cytotoxicity at 10 µM, per entry:
compound="CC(C)n1cnnc1CN(C)C1CCCNC1 (configuration not stated)" attribute_measured="cytotoxicity at 10 µM" result_value=6.9
compound=CS(=O)(=O)N1CC[C@H]2OCC[C@@]2(C(=O)NCc2ccccn2)C1 attribute_measured="cytotoxicity at 10 µM" result_value=-84.7
compound="Cc1ccc(CC(=O)N2Cc3nccn3CC(CN(C)C)C2)cc1 (configuration not stated)" attribute_measured="cytotoxicity at 10 µM" result_value=-9.58
compound=Cc1ccc(N2CCc3ncc(CNc4ccccn4)n3CC2)nn1 attribute_measured="cytotoxicity at 10 µM" result_value=5.41

Dear colleague, could you send me cytotoxicity at 10 µM for each of the items below? Thanks.
1. Cc1cc(C(NC(=O)CNS(C)(=O)=O)C(C)C)c(C)s1 (configuration not stated)
2. CC(=O)c1c(O)ccnc1C(F)(F)F
3. O=C(CCc1ccc(OC(F)(F)F)cc1)N1CCCS1(=O)=O
4. Cc1cc(C)nc(Nc2cc(C)nc(C3CCN(C(=O)CO)C3)n2)n1 (configuration not stated)
5. Cc1ccc(S(=O)(=O)N2CCOCC2C#N)c(F)c1 (configuration not stated)
6. COCCCNCc1cc(O)c2cc(C)cc(C)c2n1
7. O=C(c1ccncc1)N1C[C@H]2CC[C@@H](C1)N(C(=O)N1CCOCC1)C2
8. O=C(Nc1cccc(C(F)F)c1)N[C@@H]1C=C[C@H](CO)C1

Found:
1: 5.2; 2: 2.34; 3: 3.42; 4: 5.34; 5: 9.78; 6: -6.31; 7: 2.44; 8: -4.81

====

- run.description: Toxicity liver stage against HepG2, at 10uM
- Type: cell-based
- Design: test concentration 10 uM, cell line HepG2-A16-CD81EGFP
- assay.conditions: human, HepG2-A16-CD81EGFP cells; read-out: INHIBITION
I'd appreciate it if you could supply cytotoxicity at 10 µM values for the items below.
A complete answer gives the number and then names the unit.

compound=CC(C)N1CCc2c(c(COc3cncnc3)nn2CC2CC2)C1 result_value=1.7%

Respectfully, I request cytotoxicity at 10 µM for each entry included below.
1. Cc1cc(C(=O)N2CCCCC2C)ccc1NC(=O)N1CCOCC1 (stereo unspecified)
2. CCNC(=O)CNC(=O)c1ccn(S(=O)(=O)c2ccc(C)cc2)c1
3. Cn1cc(CN2C[C@@H]3CCCO[C@@H]3[C@H](N3CCCC3=O)C2)cn1
4. Cc1ccc(NC(=O)[C@@H]2C[C@H](C(=O)O)CN(Cc3sccc3C)C2)cn1
5. CCN(C(=O)COC)C(c1ccc(Cl)cc1)c1ccccn1 (stereo unspecified)

Found:
["7.02%", "-5.73%", "1.27%", "11%", "-9.7%"]

Required: cytotoxicity at 10 µM, one value per compound below.
1. Cc1cc(C(=O)NC(COCC(C)C)c2ccco2)no1 (stereo unspecified)
2. c1cnc(N2CCN(CCn3ccnc3-c3ccncc3)CC2)nc1
3. CS(=O)(=O)N[C@@H]1CN(Cc2ccncc2)C[C@@H]2CCCO[C@@H]21
4. Cc1cc(C)c(CNC(=O)N(C)Cc2sccc2C)c(=O)[nH]1
5. CCOC1CCN(C(=O)NCc2cccc(-n3cccn3)c2)CC1

Found:
-8.71%
-3.25%
13.1%
-1.77%
0.944%
